Entries and their EC50
Measured on: TRAP1 enzyme (Homo sapiens)
Sequence (Q12931 60-704): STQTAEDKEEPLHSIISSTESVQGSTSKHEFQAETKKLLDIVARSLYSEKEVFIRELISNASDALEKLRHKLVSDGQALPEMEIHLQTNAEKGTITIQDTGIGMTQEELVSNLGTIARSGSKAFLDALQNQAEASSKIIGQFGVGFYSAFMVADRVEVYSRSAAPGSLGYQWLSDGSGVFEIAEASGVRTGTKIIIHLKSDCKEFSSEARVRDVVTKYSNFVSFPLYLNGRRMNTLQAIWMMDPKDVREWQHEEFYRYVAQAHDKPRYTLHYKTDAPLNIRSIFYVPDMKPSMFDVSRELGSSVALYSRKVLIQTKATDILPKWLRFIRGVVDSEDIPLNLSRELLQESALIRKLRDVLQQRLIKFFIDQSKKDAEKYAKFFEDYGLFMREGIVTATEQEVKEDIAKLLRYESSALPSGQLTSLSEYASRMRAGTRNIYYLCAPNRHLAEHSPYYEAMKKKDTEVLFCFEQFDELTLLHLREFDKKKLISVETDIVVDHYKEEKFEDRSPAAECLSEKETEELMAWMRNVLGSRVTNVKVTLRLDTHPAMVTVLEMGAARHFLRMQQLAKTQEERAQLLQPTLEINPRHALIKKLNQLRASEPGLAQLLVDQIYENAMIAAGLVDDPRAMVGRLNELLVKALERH
Assay info: ADP Glo assay of TRAP1 ATPase activity
Format: biochemical
Condition details: TRAP1 ATPase activation, 150 nM Trap1, 20 μM ATP, geometric mean; read-out: ADP GLO DRC: GeoMean EC50

Solved cases below.
Cc1cc(C(=O)Nc2ccc(F)c(S(=O)(=O)Nc3ccc(Cl)cc3)c2)c2c(C)noc2n1 [Compound 736]
20 to 100 µM
COc1ccc(NC(=O)c2ccc3ocnc3c2)cc1S(=O)(=O)Nc1c(C)cccc1C [Compound 1272]
20 to 100 µM
O=C(Nc1ccc(F)c(S(=O)(=O)Nc2ccc(Cl)cc2)c1)c1cccc(-c2cncnc2)c1 [Compound 690]
< 10 µM

Attention now shifts to the item below.
Give EC50 for this entry on TRAP1 enzyme (Homo sapiens): CCCN1CCN(c2ccc(C(=O)Nc3ccc(OC)c(S(=O)(=O)Nc4c(C)cccc4C)c3)cc2)CC1 [Compound 1174]
< 10 µM
